Where do the numbers come from? From patent US20180037632A1.

TGT: T1, recombinant soluble human Seprase (rhuSeprase) (human, UniProt Q12884 29-760)
T1 construct: range 29-760; Secreted from CHO-S cells with a mouse Ig kappa secretion signal (not part of the protein in the assay); also called recombinant human Seprase; soluble fraction of human Seprase
T1 sequence: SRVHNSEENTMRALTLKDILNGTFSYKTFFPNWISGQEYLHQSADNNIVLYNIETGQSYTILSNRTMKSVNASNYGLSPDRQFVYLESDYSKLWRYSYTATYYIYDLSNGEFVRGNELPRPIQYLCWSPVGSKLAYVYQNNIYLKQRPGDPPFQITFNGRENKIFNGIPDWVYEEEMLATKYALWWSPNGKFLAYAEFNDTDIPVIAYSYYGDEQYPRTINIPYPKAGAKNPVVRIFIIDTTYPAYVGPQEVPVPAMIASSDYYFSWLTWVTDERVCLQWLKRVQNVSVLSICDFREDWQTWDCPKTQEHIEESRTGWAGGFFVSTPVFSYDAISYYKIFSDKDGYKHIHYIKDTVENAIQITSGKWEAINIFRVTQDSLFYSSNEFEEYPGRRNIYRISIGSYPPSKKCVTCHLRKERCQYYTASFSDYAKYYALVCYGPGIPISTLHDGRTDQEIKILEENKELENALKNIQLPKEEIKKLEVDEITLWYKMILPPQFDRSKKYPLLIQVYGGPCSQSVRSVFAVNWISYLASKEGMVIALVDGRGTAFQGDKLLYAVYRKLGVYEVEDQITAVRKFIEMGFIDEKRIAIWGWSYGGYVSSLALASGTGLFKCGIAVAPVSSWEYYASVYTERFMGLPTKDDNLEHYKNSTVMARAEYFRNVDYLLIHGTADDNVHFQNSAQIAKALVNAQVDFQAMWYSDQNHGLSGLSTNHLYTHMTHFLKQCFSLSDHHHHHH
METHOD_DESCRIPTION: direct ELISA on coated rhuSeprase; binding relative to the parental Trx-MC-FA-010
Positions of bridges follow the written chain, without caps; N, C: chain ends. No end group written: not given here.
Values of Relative Bindung im Vergleich zu Trx-MC-FA-010 [%] greater than or equal to 30% map to rule met; values below map to rule not met.

Could you verify whether the entry GKCPYSAWTPGRGPDCRRDSDCPGRCICRGNGYCG (designed binder, disulfide (positions not given here); also: N-terminal thioredoxin-A, His6, S-tag and linker carrier, letters not given here, the position follows from the order of the rows; also called alanine scan variant N7A of MC-FA-010, Trx fusion; not shown: thioredoxin-A, His6 tag, S-tag and linkers of the pET-32-LibEx fusion (N-terminal carrier)) [Trx-MC-FA-016] shows Relative Bindung im Vergleich zu Trx-MC-FA-010 [%] of no less than 30%?
rule not met

Could you verify whether the entry GKCPYSNWTAGRGPDCRRDSDCPGRCICRGNGYCG (designed binder, disulfide 16-28, 22-34, 3-26; also: N-terminal Trx-His6-S-tag fusion carrier, not in chain, the position follows from the order of the rows; also called alanine scan variant P10A of MC-FA-010, Trx fusion; not shown: thioredoxin-A, His6 tag, S-tag and linkers of the pET-32-LibEx fusion (N-terminal carrier)) [Trx-MC-FA-019] shows Relative Bindung im Vergleich zu Trx-MC-FA-010 [%] of no less than 30%?
rule not met

Could you verify whether the entry GKCAYSNWTPGRGPDCRRDSDCPGRCICRGNGYCG (designed binder, disulfide 16-28, 22-34, 3-26; also: N-terminal Trx-His6-S-tag fusion carrier, not in chain, the position follows from the order of the rows; also called alanine scan variant P4A of MC-FA-010, Trx fusion; not shown: Thioredoxin-A, His-tag (H6), S-tag and linker of the pET-32-LibEx fusion, N-terminal of the miniprotein) [Trx-MC-FA-013] shows Relative Bindung im Vergleich zu Trx-MC-FA-010 [%] of no less than 30%?
rule met

Could you verify whether the entry GACPYSNWTPGRGPDCRRDSDCPGRCICRGNGYCG (designed binder, disulfide 16-28, 22-34, 3-26; also: N-terminal Trx-His6-S-tag fusion carrier, not in chain, also called MC-FA-012 (K2A) alanine scan variant; not shown: N-terminal carrier of the pET-32-LibEx fusion (thioredoxin-A, His tag, S-tag, thrombin site, vector linkers)) [Trx-MC-FA-012 fusion protein] shows Relative Bindung im Vergleich zu Trx-MC-FA-010 [%] of no less than 30%?
rule met

Could you verify whether the entry GKCPYSNWTPGRAPDCRRDSDCPGRCICRGNGYCG (designed binder, disulfide 16-28, 22-34, 3-26; also: N-terminal Trx-His6-S-tag fusion carrier, not in chain, the position follows from the order of the rows; also called alanine scan variant G13A of MC-FA-010, Trx fusion; not shown: Thioredoxin-A, His-tag (H6), S-tag and linker of the pET-32-LibEx fusion, N-terminal of the miniprotein) [Trx-MC-FA-0112] shows Relative Bindung im Vergleich zu Trx-MC-FA-010 [%] of no less than 30%?
rule not met

Could you verify whether the entry AKCPYSNWTPGRGPDCRRDSDCPGRCICRGNGYCG (designed binder, disulfide 16-28, 22-34, 3-26; also: N-terminal Trx-His6-S-tag fusion carrier, letters not given here, the position follows from the order of the rows; also called alanine scan variant G1A of MC-FA-010, Trx fusion; not shown: Thioredoxin-A, His-tag (H6), S-tag and linker of the pET-32-LibEx fusion, N-terminal of the miniprotein) [Trx-MC-FA-011] shows Relative Bindung im Vergleich zu Trx-MC-FA-010 [%] of no less than 30%?
rule met

Could you verify whether the entry GKCPYSNWTPGRGPDCRRDSDCPGACICRGNGYCG (designed binder, disulfide 16-28, 22-34, 3-26; also: N-terminal Trx-His6-S-tag fusion carrier, not in chain, also called alanine scan variant R25A of MC-FA-010, Trx fusion; not shown: Thioredoxin-A, His-tag (H6), S-tag and linker of the pET-32-LibEx fusion, N-terminal of the miniprotein) [Trx-MC-FA-0115] shows Relative Bindung im Vergleich zu Trx-MC-FA-010 [%] of no less than 30%?
rule met
